System: 233499-124-R-J3-PDC spheroids with HUVEC/MSC, viability;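 note: spheroids exposed to agents for seven days before readout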
Assay: Anticancer human tumor 233499-124-R-J3-PDC patient-derived colon adenocarcinoma cell line growth inhibition [PI3K]
Details: second compound 0.00316 µM; first compound 0.001 µM; stronger effect = lower value
hey, just use Yes if measured viability, T/C is less than 90%, otherwise No

Illustrative cases are given below, each with its answer.
COMPOUND | CATEGORY
CC(=O)c1c(C)c2cnc(Nc3ccc(N4CCNCC4)cn3)nc2n(C2CCCC2)c1=O + COc1c(OCCCN2CCOCC2)ccc2c3n(c(=NC(=O)c4cnc(N)nc4)nc12)CCN3 | No
Cn1ncnc1[C@H]1c2n[nH]c(=O)c3cc(F)cc(c23)N[C@@H]1c1ccc(F)cc1 + COc1c(OCCCN2CCOCC2)ccc2c3n(c(=NC(=O)c4cnc(N)nc4)nc12)CCN3 | No
CC(=O)c1c(C)c2cnc(Nc3ccc(N4CCNCC4)cn3)nc2n(C2CCCC2)c1=O + CC(Nc1ccc2c(c1)OCCn1cc(N3C(=O)OCC3C(F)F)nc1-2)C(N)=O | Yes

// next entry
// query Could you please tell me whether viability, T/C recorded for Cn1ncnc1[C@H]1c2n[nH]c(=O)c3cc(F)cc(c23)N[C@@H]1c1ccc(F)cc1 + CC(Nc1ccc2c(c1)OCCn1cc(N3C(=O)OCC3C(F)F)nc1-2)C(N)=O is less than 90%?
// result No
